Sourced from patent US20210139507A1

- Study System: hematopoietic prostaglandin D synthase (H-PGDS) (Homo sapiens, UniProt O60760)
- Construct: Full length human H-PGDS cDNA (Invitrogen Ultimate ORF IOH13026) was amplified by PCR; 6-His (N); TEV protease cleavage site (N); made in house; host or cells: E. coli BL21 (DE3*), vector pET22b+
- Sequence (O60760 whole entry): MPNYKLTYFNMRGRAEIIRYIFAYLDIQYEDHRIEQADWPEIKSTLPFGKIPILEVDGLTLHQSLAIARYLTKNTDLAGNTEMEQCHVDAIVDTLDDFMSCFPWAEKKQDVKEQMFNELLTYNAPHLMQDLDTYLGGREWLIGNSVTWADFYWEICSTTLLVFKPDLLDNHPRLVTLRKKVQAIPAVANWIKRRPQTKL
- Protocol Description: H-PGDS RapidFire High Throughput Mass Spectrometry Assay
- Assay type: biochemical
- Experimental Parameters: conversion of PGH2 to PGD2 by human H-PGDS, 10 nM enzyme; mean pIC50; read-out: Potency Range (mean pIC50) (converted)
Readout Name: IC50

| Compound | Readout Name | Recorded Value |
| --- | --- | --- |
| CC(C)(O)[C@H]1C[C@H](NC(=O)c2cnc3nc(C4CC4)sc3c2)C1 | IC50 | 100 to 1000 nM |
| CN(C)c1nc2ncc(C(=O)N[C@H]3CC[C@H](C(C)(C)O)CC3)cc2s1 | IC50 | 10 to 79.4 nM |
| CC(C)(O)C12CC(NC(=O)c3cnc4cc(C5CC5)sc4c3)(C1)C2 | IC50 | 10 to 79.4 nM |
| CC(C)(O)[C@H]1CC[C@H](NC(=O)c2cnc3nc(C4CCC4)sc3c2)CC1 | IC50 | 10 to 79.4 nM |
| CSc1nc2ncc(C(=O)N[C@H]3CC[C@H](C(C)(C)O)CC3)cc2s1 | IC50 | 10 to 79.4 nM |
| CC(C)(O)C1CC2(CC(NC(=O)c3cnc4nc(C5CC5)sc4c3)C2)C1 (racemic) | IC50 | 10 to 79.4 nM |
| CN(c1nc2ncc(C(=O)N[C@H]3CC[C@H](C(C)(C)O)CC3)cc2s1)C(C)(C)C | IC50 | 100 to 1000 nM |
| C[C@]1(O)C[C@@H](NC(=O)c2cnc3cc(Br)sc3c2)C1 | IC50 | 1260 to 10000 nM |

We now examine a further compound.
Reported IC50 for hematopoietic prostaglandin D synthase (H-PGDS) (Homo sapiens, UniProt O60760), given CC(C)(O)C12CC(NC(=O)c3cnc4cc(Br)sc4c3)(C1)C2 ?
100 to 1000 nM
